Attribution: patent US9023351

biological target: human mesothelin (human, UniProt Q13421); test: FACS, OVCAR-3 cells
Sequence (Q13421 other isoform, or with tags, fused parts or gaps): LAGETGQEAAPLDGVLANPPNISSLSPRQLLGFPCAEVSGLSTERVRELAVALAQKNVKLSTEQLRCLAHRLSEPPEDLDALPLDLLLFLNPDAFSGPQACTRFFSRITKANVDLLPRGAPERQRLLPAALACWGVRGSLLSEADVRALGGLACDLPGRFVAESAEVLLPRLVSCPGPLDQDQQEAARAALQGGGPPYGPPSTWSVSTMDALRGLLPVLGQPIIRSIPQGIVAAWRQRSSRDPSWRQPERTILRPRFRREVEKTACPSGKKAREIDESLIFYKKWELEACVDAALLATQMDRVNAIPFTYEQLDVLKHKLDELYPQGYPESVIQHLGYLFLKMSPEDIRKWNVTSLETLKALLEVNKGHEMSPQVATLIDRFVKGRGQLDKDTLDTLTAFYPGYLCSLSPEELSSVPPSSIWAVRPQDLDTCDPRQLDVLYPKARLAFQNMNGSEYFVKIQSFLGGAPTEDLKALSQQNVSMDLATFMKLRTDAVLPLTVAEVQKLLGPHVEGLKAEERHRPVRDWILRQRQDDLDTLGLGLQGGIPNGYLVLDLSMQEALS
Reported values of EC50 for individual entries
QUANTITY: EC50 (nM)

INSERT INTO measurements (binder, quantity, measured_value) VALUES
  ('MOR06669 IgG (antibody, V domains shown) VH: QVQLVQSGAEVKKPGESLKISCKGSGYSFTNYWIGWVRQMPGKGLEWMGIIWPIDSFTQYSPSFQGQVTISADKSISTAYLQWSSLKASDTAMYYCARYGHGMYGGALDVWGQGTLVTVSS VL: DIVLTQSPATLSLSPGERATLSCRASQSVRSSRLAWYQQKPGQAPRLLIYGASKRATGVPARFSGSGSGTDFTLTISSLEPEDFATYYCQQYYDFPPTFGQGTKVEIK', 'EC50', 1.4),
  ('MOR06638 IgG (antibody, V domains shown) VH: QVQLVQSGAEVKKPGASVKVSCKASGYTFTGNYINWVRQAPGQGLEWMGIINPHGGDTKYAQKFQGRVTMTRDTSISTAYMELSSLRSEDTAVYYCARWHHGTWIFDYWGQGTLVTVSS VL: DIVLTQPPSVSGAPGQRVTISCSGSSSNIGSNYVSWYQQLPGTAPKLLIYNDNQRPSGVPDRFSGSKSGTSASLAITGLQSEDEADYYCSSWDRADGSYVFGGGTKLTVL', 'EC50', 4.19),
  ('MOR06631 IgG (antibody, V domains shown) VH: QVQLVQSGAEVKKPGESLKISCKGSGYSFTNYWIGWVRQMPGKGLEWMGFIWPVDSWTQYSPSFQGQVTISADKSISTAYLQWSSLKASDTAMYYCARYGHGMYGGALDVWGQGTLVTVSS VL: DIVLTQSPATLSLSPGERATLSCRASQSVRSSRLAWYQQKPGQAPRLLIYGASKRATGVPARFSGSGSGTDFTLTISSLEPEDFATYYCQQYYDFPPTFGQGTKVEIK', 'EC50', 0.96),
  ('MOR07111 IgG (antibody, V domains shown) VH: QVQLVQSGAEVKKPGESLKISCKGSGYSFTNYWIGWVRQMPGKGLEWMGVIMPSDSYTRYSPSFQGQVTISADKSISTAYLQWSSLKASDTAMYYCARYGHGMYGGALDVWGQGTLVTVSS VL: DIVLTQSPATLSLSPGERATLSCRASQSVRSSRLAWYQQKPGQAPRLLIYGASKRATGVPARFSGSGSGTDFTLTISSLEPEDFAVYYCQQFYSKPITFGQGTKVEIK', 'EC50', 1.35);
